Tested on: Nakaseomyces glabratus
method.notes: Antifungal activity against Candida glabrata ATCC 90030 assessed as growth inhibition after 46 to 50 hr by CLSI broth dilution method
Format: functional
# MIC annotations
Your answer is read as µg/mL, so omit the unit and give the number.

Recorded MIC, per entry:
{"compound": "C[C@@H]1[C@H](O)[C@@H](C)/C=C/C=C/C=C/C=C/C=C/C=C/C=C/[C@H](O[C@@H]2O[C@H](C)[C@@H](O)[C@H](N)[C@@H]2O)C[C@@H]2O[C@](O)(C[C@@H](O)C[C@@H](O)[C@H](O)CC[C@@H](O)C[C@@H](O)CC(=O)O[C@H]1C)C[C@H](O)[C@H]2C(=O)O [AMPHOTERICIN B]", "system.name": "Nakaseomyces glabratus", "MIC [µg/mL]": 0.63}
{"compound": "CC(C)c1ccc(C2(c3ccc(O)c(O)c3)OC(=O)c3ccccc32)cc1 (stereo not given)", "system.name": "Nakaseomyces glabratus", "MIC [µg/mL]": 200}

Query compound follows.
Which MIC is reported for this compound? CC(C)c1ccc(C2(c3ccc(O)c(O)c3O)OC(=O)c3ccccc32)cc1[N+](=O)[O-] (stereo not given)
83.3

###

Test system: Aspergillus fumigatus
method.notes: Antifungal activity against Aspergillus fumigatus ATCC 204305 assessed as growth inhibition after 46 to 50 hr by Alamar blue assay
Assay type: functional, organism-based
IC50 for assorted compounds
Note: unit mg/L is implicit; provide only the numeric part.

{"compound": "C[C@@H]1[C@H](O)[C@@H](C)/C=C/C=C/C=C/C=C/C=C/C=C/C=C/[C@H](O[C@@H]2O[C@H](C)[C@@H](O)[C@H](N)[C@@H]2O)C[C@@H]2O[C@](O)(C[C@@H](O)C[C@@H](O)[C@H](O)CC[C@@H](O)C[C@@H](O)CC(=O)O[C@H]1C)C[C@H](O)[C@H]2C(=O)O", "system.name": "Aspergillus fumigatus", "scale.unit": "mg/L", "IC50": 0.67}

Please examine the following record next.
Param readout= IC50; system= Aspergillus fumigatus; entry= CC(C)c1ccc(C2(c3ccc(O)c(O)c3)OC(=O)c3ccccc32)cc1 (stereo not given) ; returns value.
53.2

###

Listing of recorded log10 of IC50 by entry.
System: Nakaseomyces glabratus
method.notes: Antifungal activity against Candida glabrata ATCC 90030 assessed as growth inhibition after 46 to 50 hr by optical density measurement
Parameter value (number): base-10 log of IC50 in µg/mL.

Which log10 of IC50 value belongs to CC(C)c1ccc(C2(c3ccc(O)c(O)c3O)OC(=O)c3ccccc32)cc1[N+](=O)[O-] (stereo not given) ?
1.33

Which log10 of IC50 reading was recorded for the molecule CC(C)c1ccc(C2(c3ccc(O)c(O)c3)OC(=O)c3ccccc32)cc1 (stereo not given) ?
1.66

Sample CC(C)c1ccc(C2(c3ccc(O)c(O)c3O)OC(=O)c3ccccc32)cc1 (stereo not given) — what was its log10 of IC50?
1.24

For CC(C)c1ccc(C2(c3ccc(O)c(O)c3)OC(=O)c3ccccc32)cc1[N+](=O)[O-] (stereo not given) , what is its reported log10 of IC50?
1.88

Endpoint output: log10 of IC50 of C[C@@H]1[C@H](O)[C@@H](C)/C=C/C=C/C=C/C=C/C=C/C=C/C=C/[C@H](O[C@@H]2O[C@H](C)[C@@H](O)[C@H](N)[C@@H]2O)C[C@@H]2O[C@](O)(C[C@@H](O)C[C@@H](O)[C@H](O)CC[C@@H](O)C[C@@H](O)CC(=O)O[C@H]1C)C[C@H](O)[C@H]2C(=O)O . Value?
-0.55

###

Test system: Aspergillus fumigatus
method.notes: Antifungal activity against Aspergillus fumigatus ATCC 204305 assessed as growth inhibition after 46 to 50 hr by Alamar blue assay
Assay type: functional, organism-based
Reported values of IC50 for individual entries

{"molecule": "CC(C)c1ccc(C2(c3ccc(O)c(O)c3O)OC(=O)c3ccccc32)cc1[N+](=O)[O-] (stereo not drawn)", "readout.value": "> 200 µg/mL"}
{"molecule": "CC(C)c1ccc(C2(c3ccc(O)c(O)c3)OC(=O)c3ccccc32)cc1[N+](=O)[O-] (stereo not drawn)", "readout.value": "> 200 µg/mL"}

Need IC50, item CC(C)c1ccc(C2(c3ccc(O)c(O)c3O)OC(=O)c3ccccc32)cc1 (stereo not drawn)
> 200 µg/mL
